experiment: yeast display, Sf9 membrane polyspecificity reagent, FACS + sequencing; frameworks hold sequencing errors
Endpoint Name: polyreactivity (PSR sort gate)

// known answers, use as guide
{"Monomer Sequence": "QVQLVESGGGLVQAGGSLRLSCAASGFTFGYYAMGWYRQAPGKERELVAAITWSGGRTYYADSVKGRFTISRDNAKNTVYLQMNSLKPEDTAVYYGAVETLWQGSEYWGQGTQVTVSS", "polyreactivity (PSR sort gate)": "low polyreactivity"}
{"Monomer Sequence": "QVQLVESGGGLVQAGGSLRLSCAASGRTFSYAMGWYRQAPGKERELVAAITSGGSTYYADSVKGRFTISRDNAKNTVYLQMNSLKPEDTAVYYCAKLLGNYARYDYWGHGTQVTVSS", "polyreactivity (PSR sort gate)": "high polyreactivity"}
{"Monomer Sequence": "QVQLVESGGGLVQAGGSLRLSCAASGSIFYWYAMGWYRQEPGKERELVAAIDISDDTYYADSVKGRYTISRDNAKNTVYLLMNRLKPEDTAVYYCATDEWYLFEYPFYYWGQGSQVTVSS", "polyreactivity (PSR sort gate)": "high polyreactivity"}
{"Monomer Sequence": "QFQLVESGGGLVQAGGSLRLSCAASGFTFDFYAMGWYRQAPGKERELVAAISKNDGTTYYADSVKGRFTISRDNAKNTVYLQMNSLKQEDTAVYYCAAPNWRDYYSSGQGTQVTVSS", "polyreactivity (PSR sort gate)": "low polyreactivity"}

Find the recorded polyreactivity (PSR sort gate) belonging to `QVQLVESGGGLVQAGGSLRLSCAASGSIFYTNAMGWYRQAPGKERELVAAIRWSGGRTYYADSVKGRFTISRDNAKNTVFLQMNSLKPEDTAVYYCNVVVRYQSAYDYWGQGTQVTVSS` and report it.
high polyreactivity
